In this section we review reported IC50 values for a set of compounds.
System: M. tuberculosis H37Rv growth inhibition with meropenem
Assay: dose response, H37Rv, with and without meropenem (AID 434987);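 further: growth over 7 days at 37 °C before Alamar Blue read on day 9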
Details: M. tuberculosis H37Rv growth inhibition; measured here: IC50 without meropenem

// worked examples, IC50 included
IN: What IC50 value was documented for this compound, Cc1cccnc1NC(=O)c1c(O)c2cccc3c2n(c1=O)CCC3 ?
OUT: > 100 µM

IN: Please give the result for Nc1c2c(nc3sc4c(c13)CCCC4)-c1ccccc1CC2 too.
OUT: > 100 µM

IN: Please give the result for CN(C)S(=O)(=O)Oc1ccsc1C(=O)Nc1ccc(C(F)(F)F)cc1 too.
OUT: > 100 µM

IN: Please give the result for Cc1cc(C)c(C)c(S(=O)(=O)N2C(=S)NC(=O)C2CC(C)C)c1C (stereo not drawn) too.
OUT: > 100 µM

IN: Please give the result for CCCCC(=O)NC(=S)Nc1ccc(NC(=O)C(C)C)c(OC)c1 too.
OUT: > 100 µM

Turning now to a further record.
IN: What IC50 value was documented for this compound, CC(=O)c1ccc(OC(=O)N(c2ccccc2)c2ccccc2)cc1 ?
OUT: 29.6 µM

* * *

Test system: M. tuberculosis H37Rv growth inhibition with meropenem
Experiment: dose response, H37Rv, with and without meropenem (AID 434987);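 further: growth over 7 days at 37 °C before Alamar Blue read on day 9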
Conditions: measured here: IC90 with meropenem
In this section we review reported IC90 values for a set of molecules.

IN: What IC90 value was documented for this molecule, CCN1C(=O)C(=Cc2ccc(N3CCOCC3)o2)C(=O)N(CC)C1=S ?
OUT: > 100 µM

IN: Please give the result for N=C1C(c2nc(-c3ccc(Cl)cc3)cs2)=C(O)CN1CCCN1CCOCC1 too.
OUT: > 100 µM

IN: Please give the result for c1ccc(-c2ccc(C3=Nn4c(Cn5nnc6ccccc65)nnc4SC3)cc2)cc1 too.
OUT: > 100 µM

IN: Please give the result for CC1(C)Cc2c(C#N)c(SCc3ccccc3)nc(N3CCOCC3)c2CO1 too.
OUT: > 100 µM

IN: Please give the result for N/C(=N\c1nc2ccccc2o1)NC(=O)c1ccccc1Br too.
OUT: > 100 µM

More entries:
IN: What IC90 value was documented for this molecule, O=c1oc(CCCO)cc2ccc(C#Cc3ccsc3)cc12 ?
OUT: > 100 µM

IN: Please give the result for O=C(NCC(c1ccco1)N1CCc2ccccc21)c1ccc([N+](=O)[O-])cc1 (centres undefined) too.
OUT: > 100 µM

IN: Please give the result for Cc1ccc(C(=O)Nc2c(C)cc(C)c3cccnc23)cc1 too.
OUT: 10.5 µM

IN: Please give the result for NS(=O)(=O)c1ccc(O)c(NC(=O)c2ccc([N+](=O)[O-])o2)c1 too.
OUT: > 100 µM

IN: Please give the result for CCCN1C(=O)S/C(=C/c2ccc(N3CCOCC3)o2)C1=O too.
OUT: > 100 µM

IN: Please give the result for O=C(NCCC1=CCCCC1)NC1CCCCC1 too.
OUT: > 50 µM

IN: Please give the result for CNc1ccccc1NC(=O)C1CCCN1C(=O)OCc1ccccc1 (centres undefined) too.
OUT: > 100 µM

IN: Please give the result for CONC(=O)c1cc(OCC(F)(F)F)ccc1OCC(F)(F)F too.
OUT: > 100 µM

IN: Please give the result for COc1cc(/C(C)=N\NC(N)=S)cc(OC)c1OC too.
OUT: 19.6 µM

IN: Please give the result for CCN1C(=O)[C@@H]2[C@@H](c3ccc(-c4ccc(Cl)c(Cl)c4)c(OC)c3)N3CCC[C@@]3(C(=O)OC)[C@@H]2C1=O too.
OUT: > 100 µM

IN: Please give the result for Cc1ccc(N=Cc2c(O)ccc3ccccc23)cc1F too.
OUT: > 100 µM

IN: Please give the result for C/C(=N\NC(=O)c1cc(Br)ccc1O)c1ccccn1 too.
OUT: > 100 µM

IN: Please give the result for CCOc1cc(CNC(C)C)c(Cl)cc1OCC(=O)NCCc1ccccc1 too.
OUT: > 100 µM

IN: Please give the result for CCCn1nnnc1NC(=O)COc1ccc(Cl)cc1C too.
OUT: 42.9 µM

IN: Please give the result for CC(C)(C)NCCCOc1ccc(Cl)cc1C(C)(C)C too.
OUT: 26.9 µM

* * *

In this section we review reported IC90 values for a set of compounds.
Tested on: M. tuberculosis H37Rv growth inhibition with meropenem
Assay: dose response, H37Rv, with and without meropenem (AID 434987);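 further: growth over 7 days at 37 °C before Alamar Blue read on day 9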
Settings: measured here: IC90 with meropenem

IN: What IC90 value was documented for this compound, O=C(NCc1nc2ncc(Br)cc2[nH]1)c1ccccc1 ?
OUT: 54.9 µM

More entries:
IN: What IC90 value was documented for this compound, Cc1ccc(Sc2c(C(=O)Nc3ccc(F)cc3F)c(C(F)(F)F)nn2C)cc1 ?
OUT: > 100 µM

IN: Please give the result for CC1=NN(c2ccccc2)C(=O)/C1=C/c1c(O)[nH]c(=S)[nH]c1=O too.
OUT: > 100 µM

IN: Please give the result for CCc1ccc2c(c1)C(c1ccc([N+](=O)[O-])cc1)=NNC(c1ccc(C)cc1)=N2 too.
OUT: > 100 µM

IN: Please give the result for CC(=O)Nc1ccc(S(=O)(=O)Nc2cccc3cccnc23)cc1 too.
OUT: 43.3 µM

IN: Please give the result for O=C(CN(Cc1ccco1)C(=O)c1cccc(Cl)c1)Nc1c(Cl)cc(Cl)cc1Cl too.
OUT: > 100 µM

IN: Please give the result for Cc1nc(SCC(=O)Nc2ccc(F)cc2)c(C#N)c(C)c1CC(=O)c1ccc(Br)cc1 too.
OUT: > 100 µM

IN: Please give the result for CC(NC(=O)CSc1nc2ccccc2c(=O)[nH]1)c1ccccc1 (stereo not given) too.
OUT: 60.9 µM

IN: Please give the result for CC(C(=O)Nc1nc2ccccc2[nH]1)N1C(=O)C2CC=CCC2C1=O (stereo not given) too.
OUT: > 100 µM

IN: Please give the result for Cn1c(O)c(/C=C2/C=CC=N2)c(=O)[nH]c1=O too.
OUT: > 100 µM

* * *

System: M. tuberculosis H37Rv growth inhibition with meropenem
Assay: dose response, H37Rv, with and without meropenem (AID 434987);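 further: growth over 7 days at 37 °C before Alamar Blue read on day 9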
Details: measured here: IC90 with meropenem
In this section we review reported IC90 values for a set of molecules.

IN: What IC90 value was documented for this molecule, O=C1COc2ccc(C(=O)/C=C/c3ccccc3)cc2N1 ?
OUT: 12.2 µM

IN: Please give the result for COc1cc(NC(=O)c2ccccc2F)c(OC)cc1NC(=O)CN1CCOCC1 too.
OUT: > 50 µM

More entries:
IN: What IC90 value was documented for this molecule, Nc1cc(=O)nc(SCc2ccccc2)n1Cc1ccco1 ?
OUT: > 100 µM

IN: Please give the result for Nc1c(C(=O)c2cccs2)sc2nsc(SCCN3CCCCC3)c12 too.
OUT: > 100 µM

IN: Please give the result for O=C(NN=C(Cc1ccccc1)Cc1ccccc1)c1ccccc1F too.
OUT: > 50 µM

IN: Please give the result for Cc1cccc(CSc2nnc(C)c(=O)n2N)c1 too.
OUT: 9.9 µM

IN: Please give the result for O=c1[nH]c(CSc2nnc3ccccn23)nc2ccccc12 too.
OUT: > 100 µM

IN: Please give the result for N#Cc1ccc(NC(=O)COC(=O)C2=COCCO2)cc1 too.
OUT: > 100 µM

IN: Please give the result for CCOC(=O)C1CCN(C(=O)CCCCn2c(=O)[nH]c3ccccc3c2=O)CC1 too.
OUT: > 100 µM

IN: Please give the result for COc1cc(C(=O)NC2CCCCC2)ccc1OCc1ccc(Cl)cc1Cl too.
OUT: > 100 µM

IN: Please give the result for CCOc1ccc(S(=O)(=O)N(C(=O)c2ccco2)c2cc3sc(=O)oc3c3ccccc23)cc1 too.
OUT: 46.9 µM

* * *

In this section we review reported IC90 values for a set of compounds.
Test system: M. tuberculosis H37Rv growth inhibition with meropenem
Test: dose response, H37Rv, with and without meropenem (AID 434987);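 further: growth over 7 days at 37 °C before Alamar Blue read on day 9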
Conditions: measured here: IC90 with meropenem

IN: What IC90 value was documented for this compound, COc1ccc2ccccc2c1/C=N/NC(=O)c1cccc(Br)c1 ?
OUT: > 100 µM

More entries:
IN: What IC90 value was documented for this compound, CCn1cc(C(=O)O)c(=O)c2cc(F)c(N3CCN(C(=S)NC(=O)c4ccccc4C)CC3)cc21 ?
OUT: 16 µM

IN: Please give the result for O=C(OCn1nnc2ccccc2c1=O)c1ccc2c(=O)n3c(nc2c1)CCC3 too.
OUT: 26.1 µM

IN: Please give the result for O=[N+]([O-])c1cc(Cl)cc(/C=N/NC(=S)Nc2cc(S(=O)(=O)N3CCOCC3)ccc2Cl)c1O too.
OUT: 29.3 µM

IN: Please give the result for COc1cccc(/C=N/NC(=O)c2cnccn2)c1O too.
OUT: 13.9 µM

IN: Please give the result for CC1CCN(C(=S)NC(=O)c2ccccc2)CC1 too.
OUT: 13.6 µM

IN: Please give the result for O=C(COn1nnc2ccc(Cl)cc21)NC12CC3CC(CC(C3)C1)C2 too.
OUT: > 100 µM

IN: Please give the result for O=C(N/N=C/c1ccc2c(c1)OCO2)c1sc2cc(Cl)ccc2c1Cl too.
OUT: > 100 µM

IN: Please give the result for c1ccc(-c2cc(N3CCOCC3)nc3ccccc23)cc1 too.
OUT: 91.5 µM

IN: Please give the result for CCOC(=O)c1sc(NC(=O)Nc2ccc(Cl)cc2)cc1C too.
OUT: > 100 µM

IN: Please give the result for CCn1c(O)c(/C=N/NC(=O)c2ccccc2)c(=O)n(CC)c1=S too.
OUT: > 100 µM

IN: Please give the result for CCOC(=O)c1[nH]c2ccccc2c1NC(=O)Nc1ccc(OC)cc1 too.
OUT: > 100 µM
